target: Glutamate NMDA receptor; Grin1/Grin2c (Rattus norvegicus) (UniProt P35439+Q00961); experiment: Negative allosteric modulation of rat GluN1/GluN2C expressed in Xenopus laevis oocytes assessed as inhibition of L-glutamate/glycine-induced current response at holding potential -60 mV by two-electrode voltage clamp method relative to untreated control; type: cell-based; design: concentration or dose not given beside the values
REPORTED PROPERTY: Activity (%)
Use % as the unit, but write only the number.

Some compounds with recorded Activity:
ENTRY SMILES	REPORTED PROPERTY	NUMERIC RESULT
O=C(O)c1cc2cc(/C=C/c3ccccc3[N+](=O)[O-])ccc2cc1O	Activity	80.1
O=C(O)c1cc2cc(-c3ccccc3)ccc2cc1O	Activity	106
O=C(O)c1cc2cc(/C=C/c3cccc([N+](=O)[O-])c3)ccc2cc1O	Activity	74.4
O=C(O)c1cc2cc(/C=C/c3ccccc3)ccc2cc1O	Activity	86.3

Shift focus to the following entry.
(Q) Quick check: Activity of `O=C(O)c1cc2cc(/C=C/c3ccc([N+](=O)[O-])cc3)ccc2cc1O` ?
(A) 55.9
